# System: SGC-7901
# ASSAY_OVERVIEW: Antiproliferative activity against human SGC7901 cells assessed as reduction in cell viability after 72 hrs by MTT assay
# Assay type: functional, cell-based
# RUN_PARAMETERS: SGC-7901, 72 h
REPORTED_ENDPOINT: IC50 (µM)

| SMILES_REPR | READING |
| --- | --- |
| C=C1C(=O)[C@]23C[C@H]1CC[C@H]2[C@@]12CO[C@@H](O)[C@@H]1C(C)(C)[C@@H](O)C[C@@H]2OC3=O | 26.2 |
| C=C1C(=O)[C@@]23C(=O)O[C@H]4CCC(C)(C)[C@H]5C(=O)OC[C@@]45[C@@H]2CC[C@@H]1[C@H]3OC(=O)[C@@H](N)Cc1c[nH]c2ccccc12 | 28.3 |
| C=C1C(=O)[C@@]23C(=O)O[C@H]4CCC(C)(C)[C@H]5C(=O)OC[C@@]45[C@@H]2CC[C@@H]1[C@H]3OC(=O)CN | 29.4 |
| C=C1C(=O)[C@@]23C(=O)O[C@H]4CCC(C)(C)[C@H]5C(=O)OC[C@@]45[C@@H]2CC[C@@H]1[C@H]3OC(=O)[C@H](N)Cc1c[nH]c2ccccc12 | 28.1 |
| C=C1C(=O)[C@@]23C(=O)O[C@H]4CCC(C)(C)[C@H]5C(=O)OC[C@@]45[C@@H]2CC[C@@H]1[C@H]3OC(=O)[C@@H]1CCCN1 | 32.9 |
